System: DU-145
Assay: Growth inhibition of human DU145 cells after 96 hrs by trypan blue exclusion assay
Type: functional
Settings: DU-145, 96 h
Readout label: GI50 (µM)

Example results:
>>> df
                                 cpd_smiles  assay_result
0  O=C(/C(=C\c1ccc(Br)cc1)S(=O)(=O)Cc1ccc(F)cc1)c1ccc(Br)cc1            25
1  O=C(O)c1ccc(C(=O)/C(=C\c2ccc(Cl)c([N+](=O)[O-])c2)S(=O)(=O)Cc2ccc(Br)cc2)cc1            25
2  Cc1ccc(S/C(=C/c2ccc(Br)cc2)C(=O)c2ccc(Cl)cc2)cc1            25
3  O=C(/C(=C\c1cc(Cl)cc(Cl)c1Cl)Sc1ccccc1Br)c1ccc(Cl)cc1            25
4  O=C(/C(=C\c1c[nH]c2ccccc12)S(=O)(=O)Cc1ccc(F)cc1)c1ccc(Cl)cc1            50

I. Cc1ccc(CS(=O)(=O)/C(=C/c2cc(C)ccc2C)C(=O)c2ccc(Cl)cc2)cc1
II. COc1cc(/C=C(/Sc2ccc(Br)cc2)C(=O)c2ccc(Br)cc2)ccc1F
### Prompt When I and II are compared, which has the higher number for GI50? To answer, give the label that identifies your chosen option.
### Response II
(II: 10 µM, I: 1 µM)

a. O=C(O)c1ccc(C(=O)/C(=C\c2ccc(Cl)c([N+](=O)[O-])c2)SCc2ccc(F)cc2)cc1
b. COc1ccccc1/C=C(/SCc1ccc(F)cc1)C(=O)c1ccc(Br)cc1
### Prompt Quick one: lower GI50, a or b ? To answer, give the label that identifies your chosen option.
### Response a
(a: 1 µM, b: 10 µM)

I. O=C(/C(=C\c1ccc([N+](=O)[O-])c(O)c1)SCc1ccc(Br)cc1)c1ccc(C(F)(F)F)cc1
II. CSc1ccc(/C=C(/Sc2ccc(C)cc2)C(=O)c2ccc(Br)cc2)cc1
III. Cc1ccc(CS(=O)(=O)/C(=C/c2c[nH]c3ccc(Br)cc23)C(=O)c2ccc(Cl)cc2)cc1
IV. O=C(/C(=C\c1cc(Br)c(O)c(Br)c1)S(=O)(=O)Cc1ccc(Br)cc1)c1ccc(Br)cc1
### Prompt Rank the items in ascending order with respect to GI50. // respond by listing labels in the order requested
### Response I, III, IV, II
(I: 1 µM, III: 10 µM, IV: 25 µM, II: 50 µM)
